# targetDesc: AR protein (Homo sapiens, UniProt P10275)
# Construct: degradation activity of the compounds disclosed in the present disclosure on AR protein in VCaP cells; host or cells: VCaP
# Sequence (P10275 whole entry): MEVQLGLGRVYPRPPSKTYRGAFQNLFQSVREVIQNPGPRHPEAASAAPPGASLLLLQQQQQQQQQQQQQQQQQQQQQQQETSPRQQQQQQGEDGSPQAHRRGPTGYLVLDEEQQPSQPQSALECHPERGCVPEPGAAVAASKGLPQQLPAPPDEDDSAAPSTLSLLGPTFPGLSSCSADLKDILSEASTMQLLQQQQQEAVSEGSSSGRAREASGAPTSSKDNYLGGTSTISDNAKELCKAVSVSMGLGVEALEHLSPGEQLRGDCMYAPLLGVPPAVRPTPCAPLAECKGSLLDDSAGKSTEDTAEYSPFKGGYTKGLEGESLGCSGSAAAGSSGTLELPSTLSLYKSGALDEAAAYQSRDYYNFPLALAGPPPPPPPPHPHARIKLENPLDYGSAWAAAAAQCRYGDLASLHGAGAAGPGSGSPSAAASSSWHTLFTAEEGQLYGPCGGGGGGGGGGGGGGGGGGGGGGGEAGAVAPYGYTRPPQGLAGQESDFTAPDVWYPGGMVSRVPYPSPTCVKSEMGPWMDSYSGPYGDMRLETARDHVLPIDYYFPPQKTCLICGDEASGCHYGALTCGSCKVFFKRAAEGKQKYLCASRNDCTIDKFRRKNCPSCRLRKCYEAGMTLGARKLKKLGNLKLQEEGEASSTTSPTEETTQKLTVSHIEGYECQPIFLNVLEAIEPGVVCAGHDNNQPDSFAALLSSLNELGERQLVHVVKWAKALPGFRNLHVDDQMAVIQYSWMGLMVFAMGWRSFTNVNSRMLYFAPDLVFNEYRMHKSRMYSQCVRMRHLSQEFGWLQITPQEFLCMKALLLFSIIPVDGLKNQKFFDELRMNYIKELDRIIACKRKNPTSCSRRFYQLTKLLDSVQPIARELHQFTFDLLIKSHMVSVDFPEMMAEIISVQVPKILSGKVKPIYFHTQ
# testProtocol: Degradation of AR protein in VCaP cells (Western blot)
# Assay type: cell-based
# experimentalConditions: compound at 10 nM, 8 hours, read-out: Degradation rate of the AR protein in VCaP cells, 10 nM (%)
Short version: inhibition at 0.01 µM at least 50% is true (1), less is false (0).

INSERT INTO measurements (compound, qualitativelabel) VALUES
  ('N#Cc1ccc(O[C@H]2CC[C@H](NC(=O)c3ccc(N4CC5(CCC(C(=O)N6CCC7(CC6)COc6c7ccc7c6CN(C6CCC(=O)NC6=O)C7=O)CC5)C4)nn3)CC2)cc1Cl (some centres unmarked)', 'true (1)'),
  ('COc1cc(O[C@H]2CC[C@H](NC(=O)c3ccc(N4CC(CN5CCC6(CC5)COc5c6ccc6c5C(=O)N(C5CCC(=O)NC5=O)C6=O)C4)nn3)CC2)ccc1C#N (some centres unmarked)', 'false (0)'),
  ('N#Cc1ccc(O[C@H]2CC[C@H](NC(=O)c3ccc(N4CC[C@H](CN5CCC6(CC5)COc5c6ccc6c5CN(C5CCC(=O)NC5=O)C6=O)[C@H](F)C4)nn3)CC2)cc1Cl (some centres unmarked)', 'true (1)'),
  ('COc1cc(O[C@H]2C(C)(C)[C@H](NC(=O)c3ccc(N4CCC(F)(CN5CCC6(CC5)COc5cc7c(cc56)C(=O)N(C5CCC(=O)NC5=O)C7=O)CC4)cc3)C2(C)C)ccc1C#N (some centres unmarked)', 'false (0)'),
  ('N#Cc1ccc(O[C@H]2CC[C@H](NC(=O)c3ccc(N4CCC5(CC4)COc4cc6c(cc4C5)C(=O)N(C4CCC(=O)NC4=O)C6=O)nn3)CC2)cc1Cl (some centres unmarked)', 'false (0)');
